- System: TUR;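 further: growth inhibition of human TUR cells, read out with a cell viability assay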
- Assay comment: cells
- Assay type: functional, cell-based
- Setup conditions: Homo sapiens
- Description: SANGER: Inhibition of human TUR cell growth in a cell viability assay.
IC50 by entry:

{"Molecule": "O=C(/C=C/c1ccccc1)NC(NC(=S)Nc1cccc2cccnc12)C(Cl)(Cl)Cl (configuration not stated)", "Unit descriptor": "µM", "Censoring sign": ">", "IC50": 16}
{"Molecule": "COC(=O)CNC(=O)C(=O)OC", "Unit descriptor": "µM", "Censoring sign": "=", "IC50": 171}

----------
- Test system: KU-19-19
- Assay comment: cells
- Type: functional, cell-based, Homo sapiens
- Setup conditions: Homo sapiens, KU-19-19
- Description: SANGER: Inhibition of human KU-19-19 cell growth in a cell viability assay.

{"Compound": "O=C(NOCC1CC1)c1ccc(F)c(F)c1Nc1ccc(I)cc1Cl [CI-1040]", "IC50": "3.17 µM"}
{"Compound": "CN(c1ncccc1CNc1nc(Nc2ccc3c(c2)CC(=O)N3)ncc1C(F)(F)F)S(C)(=O)=O [PF-00562271]", "IC50": "> 2.56 µM"}
{"Compound": "C=CCc1cccc(/C=N/NC(=O)CN2CCN(Cc3ccccc3)CC2)c1O [PAC-1]", "IC50": "> 2.56 µM"}
{"Compound": "CN(C)C/C=C/C(=O)Nc1cc2c(Nc3ccc(F)c(Cl)c3)ncnc2cc1O[C@H]1CCOC1 [AFATINIB]", "IC50": "> 0.5 µM"}

----------
- System: HPAF-II
- Assay comment: cells
- Assay type: functional, cell-based, Homo sapiens
- Setup conditions: Homo sapiens, HPAF-II
- Description: SANGER: Inhibition of human HPAF-II cell growth in a cell viability assay.
pIC50: −log10 of the molar value.

{"Molecule": "COC(=O)CNC(=O)C(=O)OC", "Censoring sign": "=", "pIC50": 3.00}
{"Molecule": "C=CCNC1=C2C[C@@H](C)C[C@H](OC)[C@H](O)[C@@H](C)/C=C(\\C)[C@H](OC(N)=O)[C@@H](OC)/C=C\\C=C(/C)C(=O)NC(=CC1=O)C2=O", "Censoring sign": "=", "pIC50": 6.67}
{"Molecule": "O=C1N=C(NCc2cccs2)S/C1=C\\c1ccc2ncccc2c1", "Censoring sign": "<", "pIC50": 5.30}
{"Molecule": "Nc1ccn([C@@H]2O[C@H](CO)[C@@H](O)[C@@H]2O)c(=O)n1", "Censoring sign": "<", "pIC50": 5.70}
{"Molecule": "CCOc1nc(NC(=O)Cc2cc(OC)ccc2OC)cc(N)c1C#N", "Censoring sign": "<", "pIC50": 5.00}
{"Molecule": "CC(=O)O[C@@H]1[C@@H](OC(C)=O)[C@@H](O)[C@H](Oc2c(-c3ccc(O)cc3)oc3cc(O)cc(O)c3c2=O)O[C@H]1C", "Censoring sign": "<", "pIC50": 5.00}
{"Molecule": "COc1cc(F)c(F)c(Nc2ccc(I)cc2F)c1NS(=O)(=O)C1(CC(O)CO)CC1 (configuration not stated)", "Censoring sign": "=", "pIC50": 5.99}

----------
- Tested on: D-502MG
- Assay comment: cells
- Assay type: functional, cell-based, Homo sapiens
- Setup conditions: Homo sapiens, D-502MG
- Description: SANGER: Inhibition of human D-502MG cell growth in a cell viability assay.
pIC50: −log10 of the molar value.

{"Compound structure string": "COC(=O)CNC(=O)C(=O)OC", "pIC50": "< 2.40"}
{"Compound structure string": "CN(c1ncccc1CNc1nc(Nc2ccc3c(c2)CC(=O)N3)ncc1C(F)(F)F)S(C)(=O)=O", "pIC50": "< 5.59"}
{"Compound structure string": "COc1ccc(-c2ccc3c(N4CCOC[C@@H]4C)nc(N4CCOC[C@@H]4C)nc3n2)cc1CO", "pIC50": "< 5.70"}
{"Compound structure string": "COc1ccc(C2=N[C@@H](c3ccc(Cl)cc3)[C@@H](c3ccc(Cl)cc3)N2C(=O)N2CCNC(=O)C2)c(OC(C)C)c1", "pIC50": 5.53}

----------
- Test system: MHH-PREB-1;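 further: cell viability assay measuring inhibition of proliferation of human MHH-PREB-1 cells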
- Assay comment: cells
- Type: functional, cell-based
- Setup conditions: Homo sapiens
- Description: SANGER: Inhibition of human MHH-PREB-1 cell growth in a cell viability assay.
pIC50: −log10 of the molar value.

{"Compound structure string": "CC1=C2C[C@H]3[C@@H](CC=C4C[C@@H](O)CC[C@@]43C)[C@@H]2CC[C@]12O[C@@H]1C[C@H](C)CN[C@H]1[C@H]2C", "Experimental target": "MHH-PREB-1", "pIC50": "< 4.80"}
{"Compound structure string": "CNC(=O)c1cc(Oc2ccc(NC(=O)Nc3ccc(Cl)c(C(F)(F)F)c3)cc2)ccn1", "Experimental target": "MHH-PREB-1", "pIC50": "< 5.40"}
{"Compound structure string": "Cn1cc(C2=C(c3ccc(Cl)cc3Cl)C(=O)NC2=O)c2ccccc21", "Experimental target": "MHH-PREB-1", "pIC50": "< 5.00"}
{"Compound structure string": "O=C(c1cc(Cc2n[nH]c(=O)c3ccccc23)ccc1F)N1CCN(C(=O)C2CC2)CC1", "Experimental target": "MHH-PREB-1", "pIC50": "< 5.30"}
{"Compound structure string": "C=CCNC1=C2C[C@@H](C)C[C@H](OC)[C@H](O)[C@@H](C)/C=C(\\C)[C@H](OC(N)=O)[C@@H](OC)/C=C\\C=C(/C)C(=O)NC(=CC1=O)C2=O", "Experimental target": "MHH-PREB-1", "pIC50": "< 6.00"}
{"Compound structure string": "CN(C)C/C=C/C(=O)Nc1cc2c(Nc3ccc(F)c(Cl)c3)ncnc2cc1O[C@H]1CCOC1", "Experimental target": "MHH-PREB-1", "pIC50": "< 6.30"}
{"Compound structure string": "CC(=O)O[C@@H]1[C@@H](OC(C)=O)[C@@H](O)[C@H](Oc2c(-c3ccc(O)cc3)oc3cc(O)cc(O)c3c2=O)O[C@H]1C", "Experimental target": "MHH-PREB-1", "pIC50": "< 5.00"}
{"Compound structure string": "CCC1=C[C@@H]2CN(C1)Cc1c([nH]c3ccccc13)[C@@](C(=O)OC)(c1cc3c(cc1OC)N(C)[C@H]1[C@@](O)(C(=O)OC)[C@H](OC(C)=O)[C@]4(CC)C=CCN5CC[C@]31[C@@H]54)C2", "Experimental target": "MHH-PREB-1", "pIC50": 8.16}
{"Compound structure string": "CN1CCN(CCOc2cc(OC3CCOCC3)c3c(Nc4c(Cl)ccc5c4OCO5)ncnc3c2)CC1", "Experimental target": "MHH-PREB-1", "pIC50": "< 5.70"}

----------
- System: U-251;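 further: growth inhibition of human U-251 cells, read out through a cell viability assay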
- Assay comment: cells
- Format: functional, cell-based, Homo sapiens
- Setup conditions: Homo sapiens, U-251
- Description: SANGER: Inhibition of human U251 cell growth in a cell viability assay.
pIC50: −log10 of the molar value.
Form field: pIC50 (one value per entry).

{"Compound": "Cn1cncc1[C@@](N)(c1ccc(Cl)cc1)c1ccc2c(c1)c(-c1cccc(Cl)c1)cc(=O)n2C", "pIC50": 5.15}
{"Compound": "COc1cc([C@@H]2c3cc4c(cc3[C@@H](O[C@@H]3O[C@@H]5CO[C@@H](C)O[C@H]5[C@H](O)[C@H]3O)[C@H]3COC(=O)[C@H]23)OCO4)cc(OC)c1O [ETOPOSIDE]", "pIC50": 6.30}
{"Compound": "C=CCc1cccc(/C=N/NC(=O)CN2CCN(Cc3ccccc3)CC2)c1O", "pIC50": "< 5.59"}
{"Compound": "Cn1cc(C2=C(c3ccc(Cl)cc3Cl)C(=O)NC2=O)c2ccccc21", "pIC50": "< 5.00"}
{"Compound": "COc1ccc(C2=N[C@@H](c3ccc(Cl)cc3)[C@@H](c3ccc(Cl)cc3)N2C(=O)N2CCNC(=O)C2)c(OC(C)C)c1", "pIC50": "< 5.10"}
{"Compound": "C[C@]1(O)C[C@@H](c2nc(-c3ccc4ccc(-c5ccccc5)nc4c3)c3c(N)nccn32)C1", "pIC50": "< 5.59"}
{"Compound": "O=c1cc(-c2cccc3c2Sc2ccccc2S3)oc(N2CCOCC2)c1", "pIC50": "< 5.00"}

----------
- System: C-33-A;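 further: cell viability assay measuring growth inhibition of C-33-A cells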
- Assay comment: cells
- Type: functional, cell-based, Homo sapiens
- Setup conditions: Homo sapiens, C-33-A
- Description: SANGER: Inhibition of human C-33-A cell growth in a cell viability assay.
pIC50: −log10 of the molar value.

{"Compound structure string": "CN(C)C/C=C/C(=O)Nc1cc2c(Nc3ccc(F)c(Cl)c3)ncnc2cc1O[C@H]1CCOC1", "pIC50": "< 6.30"}
{"Compound structure string": "O=C(c1cc(Cc2n[nH]c(=O)c3ccccc23)ccc1F)N1CCN(C(=O)C2CC2)CC1", "pIC50": "< 5.30"}
{"Compound structure string": "O=C(NOCC1CC1)c1ccc(F)c(F)c1Nc1ccc(I)cc1Cl", "pIC50": "< 5.00"}
{"Compound structure string": "COC(=O)CNC(=O)C(=O)OC", "pIC50": "< 2.40"}
{"Compound structure string": "CC(=O)O[C@@H]1[C@@H](OC(C)=O)[C@@H](O)[C@H](Oc2c(-c3ccc(O)cc3)oc3cc(O)cc(O)c3c2=O)O[C@H]1C", "pIC50": "< 5.00"}
{"Compound structure string": "Cc1cnc(-c2cnc(NCCNc3ccc(C#N)cn3)nc2-c2ccc(Cl)cc2Cl)[nH]1", "pIC50": "< 5.59"}
{"Compound structure string": "CC(=O)O[C@@]12CO[C@@H]1C[C@H](O)[C@@]1(C)C(=O)[C@H](O)C3=C(C)[C@@H](OC(=O)[C@H](O)[C@@H](NC(=O)OC(C)(C)C)c4ccccc4)C[C@@](O)([C@@H](OC(=O)c4ccccc4)[C@H]21)C3(C)C", "pIC50": 8.58}
